B1: KRT13 (parent)
chain: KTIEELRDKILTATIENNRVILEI

- Variants of: B1
- protocol-text: protein stability index of a GFP-peptide fusion (GPS, HEK-293T) (PSI 1-6); higher = more stable;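 note: lentivirally expressed fusions sorted by FACS into six bins by GFP to DsRed ratio, PSI derived from sequencing read proportions per bin multiplied by bin number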
- run-parameters: c terminus: a fixed tail appended
quantity-name: protein stability index

>>> df
   mutation_descriptor  obs_value
0                 L11M       2.94
1                 R19G       3.05
2                 E16F       3.08
3                 I24D       3.09
4                 T14N       3.03
